System: Rattus norvegicus
experiment.description: Integrated area under the blood concentration vs time curve for the period 0-24 hr postdose of 1 mg/kg (normalized to a 1 mg/kg dose) in rat
Format: ADME, organism-based
Design: dose 1 mg/kg, time < 24 hr
stated.conditions: in vivo
property.measured: AUC (ng·h/mL)

- smiles.structure: "CCCn1cc(Cc2ccc(C(=O)NS(=O)(=O)c3ccccc3C)cc2OC)c2cc(C(=O)NCC3CCCC3)ccc21"
  u: "ng·h/mL"
  observed: 1610

* * *

target: Cysteinyl leukotriene receptor 1 (Cavia porcellus) (UniProt Q2NNR5)
Sequence (Q2NNR5 whole entry): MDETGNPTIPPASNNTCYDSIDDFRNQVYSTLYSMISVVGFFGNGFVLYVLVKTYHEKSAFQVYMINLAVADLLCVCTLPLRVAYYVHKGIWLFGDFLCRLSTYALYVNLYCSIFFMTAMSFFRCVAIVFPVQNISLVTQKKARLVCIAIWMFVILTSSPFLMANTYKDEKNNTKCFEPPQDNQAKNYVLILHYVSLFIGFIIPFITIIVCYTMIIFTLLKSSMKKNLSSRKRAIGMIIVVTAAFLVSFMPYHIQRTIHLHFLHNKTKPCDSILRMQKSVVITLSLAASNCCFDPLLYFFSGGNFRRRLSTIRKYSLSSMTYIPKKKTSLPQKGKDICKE
experiment.description: Binding affinity against leukotriene receptor (LTE4) from guinea pig tracheal spirals
Format: tissue-based

- compound: "CCC(CC)CNC(=O)c1ccc2c(C)cn(Cc3ccc(C(=O)NS(=O)(=O)c4ccccc4C)cc3OC)c2c1"
  pKB: 8.4
- compound: "CCCCC(CC)CNC(=O)c1ccc2c(c1)c(Cc1ccc(C(=O)NS(=O)(=O)c3ccccc3C)cc1OC)cn2C (stereo not drawn)"
  pKB: 8.1
- compound: "CCCc1cn(Cc2ccc(C(=O)NS(=O)(=O)c3ccccc3C)cc2OC)c2cc(C(=O)NCC(CC)CC)ccc12"
  pKB: 8.8
- compound: "CCC(CC)CNC(=O)c1ccc2c(c1)c(Cc1ccc(C(=O)NS(=O)(=O)c3ccccc3C)cc1OC)cn2CC"
  pKB: 9.5
- compound: "CCCn1cc(Cc2ccc(C(=O)NS(=O)(=O)c3ccccc3C)cc2OC)c2cc(C(=O)NCC(C)C)ccc21"
  pKB: 9.1
- compound: "COc1cc(C(=O)NS(=O)(=O)c2ccccc2C)ccc1Cc1cn(C)c2ccc(C(=O)NCC(C)C)cc12"
  pKB: 8.6
- compound: "CCCn1cc(Cc2ccc(C(=O)NS(=O)(=O)c3ccccc3)cc2OC)c2cc(C(=O)NCC(CC)CC)ccc21"
  pKB: 7.7
- compound: "COc1cc(C(=O)NS(=O)(=O)c2ccccc2C)ccc1Cn1cc(C)c2ccc(C(=O)NCC3CCCC3)cc21"
  pKB: 8.9

* * *

experiment.description: Maximum concentration in whole blood recorded in the period 0-24 hr postdose of 2.5 mg/kg in rat (normalized to a 1 mg/kg dose)
Format: ADME, organism-based
Parameters: dose 2.5 mg/kg
stated.conditions: in vivo
property.measured: Cmax (ng/mL)

- smiles.structure: "CCC(CC)CNC(=O)c1ccc2c(c1)c(Cc1ccc(C(=O)NS(=O)(=O)c3ccccc3C)cc1OC)cn2CC"
  observed: 540

* * *

experiment.description: Integrated area under the blood concentration vs time curve for the period 0-24 hr postdose of 5.0 mg/kg (normalized to a 1 mg/kg dose) GP
Assay type: ADME, organism-based
Parameters: dose 5 mg/kg, time < 24 hr
stated.conditions: guinea pig, in vivo

- smiles.structure: "CCC(CC)CNC(=O)c1ccc2c(c1)c(Cc1ccc(C(=O)NS(=O)(=O)c3ccccc3C)cc1OC)cn2CC"
  u: "ng·h/mL"
  AUC: 207

* * *

target: Cysteinyl leukotriene receptor 1 (Cavia porcellus, UniProt Q2NNR5)
Sequence (Q2NNR5 whole entry): as above
experiment.description: Binding affinity to the leukotriene receptor (LTD4) from guinea pig lung parenchymal membranes assayed using [3H]LTD4 as radioligand
Type: tissue-based, Lung parenchyma
Simple rule here: Ki less than 0.8 nM is 1, otherwise -1.

- compound: "CCCCC(CC)CNC(=O)c1ccc2c(c1)c(Cc1ccc(C(=O)NS(=O)(=O)c3ccccc3C)cc1OC)cn2C (stereo unspecified)"
  assigned.class: -1
- compound: "CCCn1cc(Cc2ccc(C(=O)NS(=O)(=O)c3ccccc3C)cc2OC)c2cc(C(=O)NCC3CCCC3)ccc21"
  assigned.class: 1
- compound: "COc1cc(C(=O)NS(=O)(=O)c2ccccc2C)ccc1Cc1cn(C)c2ccc(C(=O)NCC3CCCC3)cc12"
  assigned.class: -1
- compound: "CCC(CC)CNC(=O)c1ccc2c(c1)c(Cc1ccc(C(=O)NS(=O)(=O)c3ccccc3C)cc1OC)cn2C(C)C"
  assigned.class: 1
- compound: "CCCn1cc(Cc2ccc(C(=O)NS(=O)(=O)c3ccccc3C)cc2OC)c2cc(C(=O)NCC(C)C)ccc21"
  assigned.class: -1
